B1: HSP90AB1 (parent)
chain: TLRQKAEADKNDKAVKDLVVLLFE

variants of: B1; assay: protein stability index of a GFP-peptide fusion (GPS, HEK-293T) (PSI 1-6); higher = more stable; details: c terminus: a fixed tail appended;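 further: lentivirally expressed fusions sorted by FACS into six bins by GFP to DsRed ratio, PSI derived from sequencing read proportions per bin multiplied by bin number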
Some variants, each annotated with its measured protein stability index.
READOUT KIND: protein stability index

1) D17Y | 1.91
2) A14N | 2.56
3) V20D | 5.3
4) V15A | 3.1
5) L18H | 3.3
